- MEASURED ON: T1, CRF2R
- T1 sequence (Q13324 whole entry, species assumed, looked up): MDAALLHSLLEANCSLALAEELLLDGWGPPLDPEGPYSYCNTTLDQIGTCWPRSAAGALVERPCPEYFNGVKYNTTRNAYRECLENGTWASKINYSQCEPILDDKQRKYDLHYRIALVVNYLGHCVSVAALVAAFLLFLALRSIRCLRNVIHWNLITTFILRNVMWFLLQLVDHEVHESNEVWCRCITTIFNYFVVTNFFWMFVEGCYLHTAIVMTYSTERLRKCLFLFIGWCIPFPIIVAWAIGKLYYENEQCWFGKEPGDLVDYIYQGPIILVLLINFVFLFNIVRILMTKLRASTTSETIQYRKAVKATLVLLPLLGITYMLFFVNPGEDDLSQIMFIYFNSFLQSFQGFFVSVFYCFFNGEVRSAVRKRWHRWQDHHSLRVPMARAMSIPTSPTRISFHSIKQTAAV
- PROCEDURE TEXT: cell-based or functional assay; note: reference of the scale not given here
Ends that are not written are not given here.
A collection of binders and their measured CRF2R Emax %
Only the number, expressed in %, is required.

Example cases with answers are listed next.
> print(dat)
                                     binder  data.value
1  ZGPPISIDLPFQLLRILIEIEKQEKEKQQAANNALLLAT (C-terminal amide) [SEQ ID NO 358]         100
2  ZGPPISIDLPFQLLREVIEIEKQEKEKQQAANNALLLATI (C-terminal amide) [SEQ ID NO 359]         100
3  ZGPPISIDLPYFLLRKMIEIEKQEKEKQQAANNRLLLDTI (C-terminal amide) [SEQ ID NO 220]          98
4  ZGPPISIDVPYHLLRKVIEIEKQEKEKQQAANNARLLARI (C-terminal amide) [SEQ ID NO 377]          83
5  ZGPPISIDLPYHLLRKMIEIEKQEKEKQQAANNALLLAT (C-terminal amide) [SEQ ID NO 315]        81.7

What CRF2R Emax % value was documented for this binder, ZGPPISIDLPLQLLRKVIEIEKQEKEKQQAANNALLLATI (C-terminal amide) [SEQ ID NO 349] ? 100

What CRF2R Emax % value was documented for this binder, IVLSLDVPIGLLQILLEKAAAEAEAAAKAAQEQILAHV-NH2 [SEQ ID NO 366] ? 46

What CRF2R Emax % value was documented for this binder, ZGPPISIDVPIGLLRKMIEIEKQEKEKQQAANNRLLLDTI (not fully specified; C-terminal amide) [SEQ ID NO 254] ? 36

What CRF2R Emax % value was documented for this binder, ZGPPISIDLPHFLLRKMIEIEKQEKEKQQAANNRLLLDTI (C-terminal amide) [SEQ ID NO 219] ? 98
